Data provenance is ChEMBL document CHEMBL1125209.

Species on record: Cavia porcellus
Experiment: Percentage response in phosphoinositide hydrolysis relative to maximal response elicited by CCK-8 in guinea pig pancreatic acini
Assay type: functional
*1 amine or outer side, *2 acyl side, *3 side chain or, on linkers, in order; H or OH if unused. Where a SMILES comes first, the peptide text is derived from it. Side-chain parts run from the residue outwards. [ ]: non-standard residue; d: D form. The star is where a group is joined. NH(3-Cl-phenyl) = Clc1cccc(N*)c1; NH(2-Me-phenyl) = Cc1ccccc1N*; Orn = NCCC[C@H](N)C(=O)O; βNA = c1ccc2cc(N*)ccc2c1; Boc = CC(C)(C)OC(=O)*; CO = O=C([*:1])[*:2]
valueKind: Max response (%)
Output spec: scalar in %, unitless text.

Incoming: Look up and state reported Max response for CC(C)(C)OC(=O)N[C@@H](Cc1c[nH]c2ccccc12)C(=O)N[C@@H](CCCCNC(=O)Nc1ccc2ccccc2c1)C(=O)N[C@@H](CC(=O)O)C(=O)N[C@@H](Cc1ccccc1)C(N)=O (Boc-WK([CO-βNA])DF-NH2)
Outgoing: 79

Incoming: Look up and state reported Max response for Cc1ccccc1NC(=O)NCCC[C@H](NC(=O)[C@H](Cc1c[nH]c2ccccc12)NC(=O)OC(C)(C)C)C(=O)N[C@@H](CC(=O)O)C(=O)N[C@@H](Cc1ccccc1)C(N)=O (Boc-W[Orn]([CO-NH(2-Me-phenyl)])DF-NH2)
Outgoing: 36

Incoming: Look up and state reported Max response for CC(C)(C)OC(=O)N[C@@H](Cc1c[nH]c2ccccc12)C(=O)N[C@@H](CCCCNC(=O)Nc1cccc(Cl)c1)C(=O)N[C@@H](CC(=O)O)C(=O)N[C@@H](Cc1ccccc1)C(N)=O (Boc-WK([CO-NH(3-Cl-phenyl)])DF-NH2)
Outgoing: 93

Incoming: Look up and state reported Max response for Cc1ccccc1NC(=O)NCCCC[C@H](NC(=O)[C@H](Cc1c[nH]c2ccccc12)NC(=O)OC(C)(C)C)C(=O)N[C@@H](CC(=O)O)C(=O)N[C@@H](Cc1ccccc1)C(N)=O (Boc-WK([CO-NH(2-Me-phenyl)])DF-NH2)
Outgoing: 101
